Biological target: Neuropeptide Y receptor type 1 (Homo sapiens, UniProt P25929); note: in other assays of this panel Not Active means under 50% inhibition at 10 µM
Sequence (P25929 whole entry): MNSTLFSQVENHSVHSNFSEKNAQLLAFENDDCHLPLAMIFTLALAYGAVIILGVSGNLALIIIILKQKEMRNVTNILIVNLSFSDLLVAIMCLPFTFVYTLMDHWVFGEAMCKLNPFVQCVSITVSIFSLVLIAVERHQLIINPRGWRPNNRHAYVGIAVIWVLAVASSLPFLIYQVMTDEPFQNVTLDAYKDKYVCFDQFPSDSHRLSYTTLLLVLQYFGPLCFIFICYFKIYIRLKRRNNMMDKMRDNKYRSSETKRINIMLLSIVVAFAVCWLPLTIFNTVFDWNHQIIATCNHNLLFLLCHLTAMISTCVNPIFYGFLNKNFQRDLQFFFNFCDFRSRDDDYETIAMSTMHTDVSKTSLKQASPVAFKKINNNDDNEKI
Type: cell membranes, Membrane
Settings: sk-n-mc
Observation Type: IC50

CC1=C(C(=O)O)N2C(=O)[C@@H](NC(=O)[C@H](N)c3ccccc3)[C@H]2SC1 [CEPHALEXIN ANHYDROUS] ... Not Active
CN1CCC(=C2c3ccccc3C=Cc3ccccc32)CC1 [CYPROHEPTADINE] ... Not Active
Nc1ccn([C@@H]2CS[C@H](CO)O2)c(=O)n1 [LAMIVUDINE] ... Not Active

* * *

Listing: IC50 of selected molecules
Experiment: DRUGMATRIX: Calcium Channel Type L, Benzothiazepine radioligand binding (ligand: [3H] Diltiazem)
Format: cell membranes, Rattus norvegicus, Wistar, Brain, Membrane
Details: Not Active = under 50% inhibition at 10 µM; read-out: IC50
Your answer is read as nM, so omit the unit and give the number.

Here's what some known entries look like.
OC(CCN1CCCCC1)(c1ccccc1)C1CCCCC1 (configuration not stated) ... 4810
COCCOC(=O)C1=C(C)NC(C)=C(C(=O)OC(C)C)C1c1cccc([N+](=O)[O-])c1 (configuration not stated) ... 2.09
COC(=O)C1=C(C)NC(C)=C(C(=O)OCC(C)C)C1c1ccccc1[N+](=O)[O-] (configuration not stated) ... 2.48

The molecule listed as CC(C)CC(N(C)C)C1(c2ccc(Cl)cc2)CCC1 (configuration not stated) shows IC50 equal to 809

The molecule listed as CCOC(=O)C1=C(C)NC(C)=C(C(=O)OC)C1c1cccc([N+](=O)[O-])c1 (configuration not stated) shows IC50 equal to 1.56

The molecule listed as CC(=O)N1CCN(c2ccc(OCC3COC(Cn4ccnc4)(c4ccc(Cl)cc4Cl)O3)cc2)CC1 (configuration not stated) shows IC50 equal to 32000

The molecule listed as CC(C)(C)c1ccc(C(O)CCCN2CCC(C(O)(c3ccccc3)c3ccccc3)CC2)cc1 (configuration not stated) shows IC50 equal to 226

* * *

Assay: DRUGMATRIX: Calcium Channel Type L, Dihydropyridine radioligand binding (ligand: [3H] Nitrendipine)
Assay type: cell membranes, Rattus norvegicus, Wistar, Cerebral cortex, Membrane
Details: Not Active = under 50% inhibition at 10 µM
Observation Type: Ki

C/C=C/C[C@@H](C)[C@@H](O)[C@H]1C(=O)N[C@@H](CC)C(=O)N(C)CC(=O)N(C)[C@@H](CC(C)C)C(=O)N[C@@H](C(C)C)C(=O)N(C)[C@@H](CC(C)C)C(=O)N[C@@H](C)C(=O)N[C@H](C)C(=O)N(C)[C@@H](CC(C)C)C(=O)N(C)[C@@H](CC(C)C)C(=O)N(C)[C@@H](C(C)C)C(=O)N1C ... Not Active
CC(C)[C@H]1CC[C@H](C(=O)N[C@H](Cc2ccccc2)C(=O)O)CC1 [NATEGLINIDE] ... Not Active
COc1ccc2cc([C@H](C)C(=O)O)ccc2c1 ... Not Active
O=NN(CCCl)C(=O)NCCCl ... Not Active

The molecule listed as COc1cccc2c1C(=O)c1c(O)c3c(c(O)c1C2=O)C[C@@](O)(C(=O)CO)C[C@@H]3O[C@H]1C[C@H](N)[C@@H](O)[C@H](C)O1 [EPIRUBICIN] shows Ki equal to Not Active

The molecule listed as [Cl-].[Cl-].[Zn+2] [ZINC CHLORIDE] shows Ki equal to Not Active

The molecule listed as Cc1cccc(Nc2ccncc2S(=O)(=O)NC(=O)NC(C)C)c1 [TORSEMIDE] shows Ki equal to Not Active

* * *

Assay: DRUGMATRIX: Phosphodiesterase PDE4 enzyme inhibition (substrate: [3H]cAMP + cAMP)
Settings: u-937; Not Active = under 50% inhibition at 10 µM
Observation Type: IC50

CC(=O)OCC(=O)[C@@]1(O)CC[C@H]2[C@@H]3CCC4=CC(=O)CC[C@]4(C)[C@H]3C(=O)C[C@@]21C [CORTISONE ACETATE] ... Not Active
Cc1cc(=O)n(-c2ccccc2)n1C [ANTIPYRINE] ... Not Active
N=C(Nc1ccccc1)Nc1ccccc1 ... Not Active
CC1=C(C(=O)O)N2C(=O)[C@@H](NC(=O)[C@H](N)c3ccccc3)[C@H]2SC1 [CEPHALEXIN ANHYDROUS] ... Not Active
CCCC(CCC)C(=O)O [VALPROIC ACID] ... Not Active

The compound listed as O=NN(CCCl)C(=O)NCCCl [CARMUSTINE] shows IC50 equal to Not Active

The compound listed as C=C1CC[C@H](O)C/C1=C/C=C1\CCC[C@]2(C)[C@@H]([C@H](C)CCCC(C)C)CC[C@@H]12 [CHOLECALCIFEROL] shows IC50 equal to Not Active

The compound listed as COc1cccc2c1C(=O)c1c(O)c3c(c(O)c1C2=O)C[C@@](O)(C(=O)CO)C[C@@H]3O[C@H]1C[C@H](N)[C@H](O)[C@H](C)O1 [DOXORUBICIN] shows IC50 equal to Not Active

* * *

Test: DRUGMATRIX: Purinergic P2X radioligand binding (ligand: [3H] alpha, beta-Methylene-ATP)
Format: cell membranes, Oryctolagus cuniculus, New Zealand albino, Urinary bladder, Membrane
Conditions: Not Active = under 50% inhibition at 10 µM
Observation Type: IC50

CC(=O)N[C@@H]1[C@H](Oc2c3cc4cc2Oc2ccc(cc2Cl)[C@@H](O[C@@H]2O[C@@H](CO)[C@@H](O)[C@H](O)[C@@H]2NC(C)=O)[C@@H]2NC(=O)[C@H](NC(=O)[C@@H]4NC(=O)[C@H]4NC(=O)[C@@H](Cc5ccc(c(Cl)c5)O3)NC(=O)[C@H](N)c3ccc(O)c(c3)Oc3cc(O)cc4c3)c3ccc(O)c(c3)-c3c(O[C@H]4O[C@H](CO)[C@@H](O)[C@@H](O)[C@@H]4O)cc(O)cc3[C@@H](C(=O)O)NC2=O)O[C@@H](CO)[C@@H](O)[C@@H]1O ... Not Active
O=C(C1CCCCC1)N1CC(=O)N2CCc3ccccc3C2C1 (stereo not drawn) ... Not Active
CCCN(CCC)C(=O)C(CCC(=O)O)NC(=O)c1ccccc1 (stereo not drawn) [PROGLUMIDE] ... Not Active

* * *

Experiment: DRUGMATRIX: Phosphodiesterase PDE3 enzyme inhibition (substrate: [3H]cAMP + cAMP)
Type: tissue-based, Homo sapiens
Conditions: platelet; Not Active = under 50% inhibition at 10 µM
Observation Type: Ki

Here's what some known entries look like.
O=C(C1CCCCC1)N1CC(=O)N2CCc3ccccc3C2C1 (stereo not drawn) [PRAZIQUANTEL] ... Not Active
O=C1CCC(N2C(=O)c3ccccc3C2=O)C(=O)N1 (stereo not drawn) [THALIDOMIDE] ... Not Active
CC(C)(C(=O)c1cccnc1)c1cccnc1 [METYRAPONE] ... Not Active
Cc1cc(=O)n(-c2ccccc2)n1C [ANTIPYRINE] ... Not Active
CC1(C)O[C@@H]2C[C@H]3[C@@H]4C[C@H](F)C5=CC(=O)C=C[C@]5(C)[C@@]4(F)[C@@H](O)C[C@]3(C)[C@]2(C(=O)CO)O1 [FLUOCINOLONE ACETONIDE] ... Not Active

The molecule listed as O=C(N[C@H](CO)[C@H](O)c1ccc([N+](=O)[O-])cc1)C(Cl)Cl [CHLORAMPHENICOL] shows Ki equal to Not Active

The molecule listed as CC(=O)OCC(=O)[C@@]1(O)CC[C@H]2[C@@H]3CCC4=CC(=O)CC[C@]4(C)[C@H]3C(=O)C[C@@]21C [CORTISONE ACETATE] shows Ki equal to Not Active

* * *

Molecular target: Epidermal growth factor receptor (Homo sapiens)
Experiment: DRUGMATRIX: Protein Tyrosine Kinase, EGF Receptor enzyme inhibition (substrate: Poly(Glu:Tyr))
Format: cell-based, Insect cells
Conditions: insect cells; Not Active = under 50% inhibition at 10 µM; read-out: IC50
Observation Type: IC50 (µM)
Your answer is read as µM, so omit the unit and give the number.

The substance listed as CADMIUM DICHLORIDE shows IC50 equal to 0.486

* * *

Target: Beta-1 adrenergic receptor (Homo sapiens, UniProt P08588)
Sequence (P08588 whole entry): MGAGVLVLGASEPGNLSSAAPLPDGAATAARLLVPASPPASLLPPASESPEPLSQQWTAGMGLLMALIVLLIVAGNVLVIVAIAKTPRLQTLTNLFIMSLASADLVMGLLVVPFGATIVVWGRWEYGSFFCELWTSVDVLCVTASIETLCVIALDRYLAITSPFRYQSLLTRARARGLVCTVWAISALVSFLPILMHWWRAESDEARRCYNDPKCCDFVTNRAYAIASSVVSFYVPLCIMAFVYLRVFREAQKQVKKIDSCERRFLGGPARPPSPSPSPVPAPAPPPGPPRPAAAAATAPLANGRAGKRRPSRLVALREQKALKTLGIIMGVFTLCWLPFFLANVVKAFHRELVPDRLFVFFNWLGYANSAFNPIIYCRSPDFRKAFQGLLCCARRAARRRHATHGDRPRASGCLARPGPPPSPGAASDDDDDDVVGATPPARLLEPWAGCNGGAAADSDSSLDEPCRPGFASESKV
Assay: DRUGMATRIX: Adrenergic beta1 radioligand binding (ligand: [125I] Cyanopindolol)
Type: cell membranes, CHO-K1, Membrane
Conditions: cho-k1; Not Active = under 50% inhibition at 10 µM
Observation Type: IC50

Here's what some known entries look like.
Cc1cc(=O)n(-c2ccccc2)n1C [ANTIPYRINE] ... Not Active
COc1ccccc1C(=O)N1CCC(Cc2ccccc2)CC1 ... Not Active
CNC(=C[N+](=O)[O-])NCCSCc1ccc(CN(C)C)o1 ... Not Active
COc1cccc2c1C(=O)c1c(O)c3c(c(O)c1C2=O)C[C@@](O)(C(=O)CO)C[C@@H]3O[C@H]1C[C@H](N)[C@H](O)[C@H](C)O1 ... Not Active

The molecule listed as CC(C)[C@H]1CC[C@H](C(=O)N[C@H](Cc2ccccc2)C(=O)O)CC1 [NATEGLINIDE] shows IC50 equal to Not Active

The molecule listed as C=CCN1CC[C@]23c4c5ccc(O)c4O[C@H]2C(=O)CC[C@@]3(O)[C@H]1C5 shows IC50 equal to Not Active

The molecule listed as CC[C@]1(O)C[C@@H]2CN(CCc3c([nH]c4ccccc34)[C@@](C(=O)OC)(c3cc4c(cc3OC)N(C)[C@H]3[C@@](O)(C(=O)OC)[C@H](OC(C)=O)[C@]5(CC)C=CCN6CC[C@]43[C@@H]65)C2)C1 shows IC50 equal to Not Active

The molecule listed as CC1(C)O[C@@H]2C[C@H]3[C@@H]4C[C@H](F)C5=CC(=O)C=C[C@]5(C)[C@@]4(F)[C@@H](O)C[C@]3(C)[C@]2(C(=O)CO)O1 [FLUOCINOLONE ACETONIDE] shows IC50 equal to Not Active

The molecule listed as OC(CCN1CCCCC1)(c1ccccc1)C1CCCCC1 (stereo not given) shows IC50 equal to Not Active

The molecule listed as C[C@]1(Cn2ccnn2)[C@H](C(=O)O)N2C(=O)C[C@H]2S1(=O)=O shows IC50 equal to Not Active

The molecule listed as Cc1ncc([N+](=O)[O-])n1CCO shows IC50 equal to Not Active

The molecule listed as COC(=O)C1=C(C)NC(C)=C(C(=O)OCC(C)C)C1c1ccccc1[N+](=O)[O-] (stereo not given) shows IC50 equal to Not Active

The molecule listed as C[C@@H]1C[C@@H]([C@H](O)CC2CC(=O)NC(=O)C2)C(=O)[C@@H](C)C1 [CYCLOHEXIMIDE] shows IC50 equal to Not Active

The molecule listed as C[C@H]1C[C@H]2[C@@H]3CCC4=CC(=O)C=C[C@]4(C)[C@@]3(Cl)[C@@H](O)C[C@]2(C)[C@@]1(O)C(=O)CO shows IC50 equal to Not Active

The molecule listed as CC(=O)CC(c1ccccc1)c1c(O)c2ccccc2oc1=O (stereo not given) shows IC50 equal to Not Active
